assay.info: NCI Yeast Anticancer Drug Screen. Data for the cln2 rad14 strain (AID 165);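 also: 0% = growth equal to vehicle treated cultures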
settings: S. cerevisiae cln2 rad14 strain, at 50.0 µM
Compounds without any hit were thinned out: in the full panel of roughly 79,000, 15% have a hit. The source made the active and inactive calls. Rule as the data show it: active = growth inhibition above about 70%; inactive = the rest.
# valid calls are 1 = active, 0 = inactive; nothing else

Field: example entries. Status: answers known.
{"molecule": "CC([CH2][Hg][Cl])c1ccccc1 (stereo not drawn)", "class": 1}
{"molecule": "CN(C)c1ccc(-c2ccc(N(C)C)cc2)cc1", "class": 0}
{"molecule": "N#CCC[CH2][Sn]([Br])([Br])[c]1ccccc1", "class": 0}

Q. What classification did `O=C1/C(=C\c2cc3ccccc3c3ccccc23)N2CCC1CC2` end up with in this test?
A. 0

Q. What classification did CNP(=O)(Oc1cc(Cl)c(Cl)cc1Cl)N1CCN(c2ccccc2)CC1 (stereo not drawn) end up with in this test?
A. 1

Data provenance: PubChem BioAssay (NCI)
